# Tested on: in vivo angiogenesis, blood vessel count
# MEASUREMENT_DESCRIPTION: reduction of blood vessel formation in vivo – HTS, in vivo study (AID 732);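 further: zebrafish embryos dosed at one day post fertilization; 0% = reference inhibitor and 100% = plate mean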
# CONDITION_DETAILS: active compounds read low;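 tested at 30 µM in the well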
Calls of active or inactive are those of the source. How the calls were made is not given here.
MEASURED_PARAMETER: vessel count % control

Here is how some molecules turned out for vessel count % control.
molecule=CNc1ncnc2c1ncn2[C@H]1C[C@H](OP(=O)(O)O)[C@@H](COP(=O)(O)O)O1 measured_parameter="vessel count % control" reported_value="93.2% (inactive)"
molecule=Cc1cc(O)c2c(c1)C(=O)c1cc(O)cc(O)c1C2=O measured_parameter="vessel count % control" reported_value="87.5% (inactive)"
molecule=CC(=O)[C@H]1CC[C@H]2[C@@H]3CC[C@H]4C[C@H](O)CC[C@]4(C)[C@H]3C(=O)C[C@]12C measured_parameter="vessel count % control" reported_value="111% (inactive)"
molecule=C[C@@H](Oc1ccc(Oc2cnc3ccc(Cl)cc3n2)cc1)C(=O)O measured_parameter="vessel count % control" reported_value="80.3% (inactive)"

Ask: Any idea what vessel count % control was measured for COc1ccc(C2CNC(=O)C2)cc1OC1CCCC1 (stereo unspecified) ?
Result: 96.6% (inactive)

Ask: Using the record for `CN(C)CCOC(c1ccccc1)c1ccccc1` , report its vessel count % control.
Result: 86.5% (inactive)

---

# vessel count % control per record follows
# Tested on: in vivo angiogenesis, blood vessel count
# MEASUREMENT_DESCRIPTION: reduction of blood vessel formation in vivo – HTS, in vivo study (AID 732)
# CONDITION_DETAILS: active compounds read low;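 tested at 30 µM in the well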
Just the number in %, nothing appended.

Ask: Any idea what vessel count % control came out for `O=C(O)C1=CCCNC1` on in vivo angiogenesis, blood vessel count?
Result: 114

Ask: Hi! What's the reported vessel count % control for `O=c1ccc2ccc(O)c(O)c2o1` on in vivo angiogenesis, blood vessel count?
Result: 121

Ask: in vivo angiogenesis, blood vessel count / vessel count % control / `O=C1Nc2ccc(I)cc2/C1=C/c1cc(Br)c(O)c(Br)c1` : value?
Result: 69.8

Ask: Request: vessel count % control, test system in vivo angiogenesis, blood vessel count, entry `Cc1cn[nH]c1`
Result: 87.3

Ask: Recall the recorded vessel count % control for COc1ccc2c(c1)CCC1C2CC[C@@]2(C)C1CC[C@@H]2NCCCCCCN1C(=O)C=CC1=O (some centres undefined) with in vivo angiogenesis, blood vessel count and state it.
Result: 0

Ask: # query: vessel count % control | item NC1CCN(O)C1=O (centres undefined) | system: in vivo angiogenesis, blood vessel count
Result: 115

Ask: // map `CN(N=O)c1ccc(O)c(O)c1` to recorded vessel count % control (system: in vivo angiogenesis, blood vessel count)
Result: 96.8

Ask: Notebook entry, in vivo angiogenesis, blood vessel count assay: vessel count % control of `Cn1c(=O)c2[nH]c(-c3ccccc3)nc2n(C)c1=O` = ?
Result: 117

Ask: Param readout= vessel count % control; system= in vivo angiogenesis, blood vessel count; entry= `CN1CCC(=C2c3ccccc3C=Cc3ccccc32)CC1` ; returns value.
Result: 0

Ask: Entry `CN(Cc1cnc2nc(N)nc(N)c2n1)c1ccc(C(=O)N[C@@H](CCC(=O)O)C(=O)O)cc1` , system in vivo angiogenesis, blood vessel count: what vessel count % control was measured?
Result: 112

---

# Test system: in vivo angiogenesis, blood vessel count
# MEASUREMENT_DESCRIPTION: reduction of blood vessel formation in vivo – HTS, in vivo study (AID 732);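 further: zebrafish embryos dosed at one day post fertilization; 0% = reference inhibitor and 100% = plate mean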
# CONDITION_DETAILS: active compounds read low;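 tested at 30 µM in the well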
MEASURED_PARAMETER: vessel count % control (%)
The reply should contain only the number, in %.

compound=CCOC(=O)N1CCC(=C2c3ccc(Cl)cc3CCc3cccnc32)CC1 target_system="in vivo angiogenesis, blood vessel count" measured_parameter="vessel count % control" reported_value=103
compound=CC#C[C@]1(O)CC[C@H]2[C@@H]3CCC4=CC(=O)CCC4=C3[C@@H](c3ccc(N(C)C)cc3)C[C@@]21C target_system="in vivo angiogenesis, blood vessel count" measured_parameter="vessel count % control" reported_value=106
compound=CC(=O)[C@@]1(O)CC[C@H]2[C@@H]3CCC4=CC(=O)CC[C@]4(C)[C@H]3CC[C@@]21C target_system="in vivo angiogenesis, blood vessel count" measured_parameter="vessel count % control" reported_value=98.7
compound="O=C(c1ccccc1)c1ccc2n1CCC2C(=O)O (stereo unspecified)" target_system="in vivo angiogenesis, blood vessel count" measured_parameter="vessel count % control" reported_value=79.7
compound=COc1[nH]c2ccc(F)cc2c1C(=O)OCC1CCN(CCNS(C)(=O)=O)CC1 target_system="in vivo angiogenesis, blood vessel count" measured_parameter="vessel count % control" reported_value=99.6
compound=Nc1ccn([C@@H]2O[C@H](CO)[C@@H](O)[C@@H]2O)c(=O)n1 target_system="in vivo angiogenesis, blood vessel count" measured_parameter="vessel count % control" reported_value=104

Ask: For the compound shown here, `CCn1cc(C(=O)O)c(=O)c2ccc(C)nc21` , give the reported vessel count % control.
Result: 135

Ask: May I ask what vessel count % control has been recorded for `N=C(N)SCCc1ccc(CCSC(=N)N)cc1` ?
Result: 72.6

Ask: Look up vessel count % control: CCOC(=O)C12CC1/C(=N/O)c1ccccc1O2 (stereo unspecified)
Result: 104

Ask: Please give the measured vessel count % control for this compound: NC(Cc1cc(O)c(O)cc1O)C(=O)O (stereo unspecified)
Result: 88.2

Ask: So what's the measured vessel count % control for this one? `CC[N+](CC)(CC)CC(=O)Nc1c(C)cccc1C`
Result: 85.1

---

# Test system: in vivo angiogenesis, blood vessel count
# MEASUREMENT_DESCRIPTION: reduction of blood vessel formation in vivo – HTS, in vivo study (AID 732);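 further: zebrafish embryos dosed at one day post fertilization; 0% = reference inhibitor and 100% = plate mean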
# CONDITION_DETAILS: active compounds read low;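 tested at 30 µM in the well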
Activity calls are given as the source filed them. How the calls were made is not given here.
Measured vessel count % control values are reported for all entries that follow.

Ask: Give the reported vessel count % control for `CC(C)[N+](C)(CCOC(=O)C1c2ccccc2Oc2ccccc21)C(C)C` (system: in vivo angiogenesis, blood vessel count).
Result: 134% (inactive)

Ask: Lab note: need vessel count % control for `NC(=NCc1ccccc1)NC(=O)c1nc(Cl)c(N)nc1N` on in vivo angiogenesis, blood vessel count, anyone have it?
Result: 107% (inactive)

Ask: Form entry - test system: in vivo angiogenesis, blood vessel count; read-out: vessel count % control; molecule: `CN[C@H]1CC[C@@H](c2ccc(Cl)c(Cl)c2)c2ccccc21`
Result: 98% (inactive)

Ask: Any idea what vessel count % control came out for `CCN(CC)CCCCCCCCOC(=O)c1cc(OC)c(OC)c(OC)c1` on in vivo angiogenesis, blood vessel count?
Result: 91.4% (inactive)

Ask: Query for in vivo angiogenesis, blood vessel count: what vessel count % control does the record show for `O=C(O)c1cc2cc(Cc3cccnc3)ccc2o1` ?
Result: 100% (inactive)

Ask: Please tell me: vessel count % control of `COc1ccc(CNC(=O)/C=C/c2ccc3[nH]cc(CCN(C)C)c3c2)cc1` , system in vivo angiogenesis, blood vessel count?
Result: 75.8% (inactive)

---

# Tested on: in vivo angiogenesis, blood vessel count
# MEASUREMENT_DESCRIPTION: reduction of blood vessel formation in vivo – HTS, in vivo study (AID 732);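 further: zebrafish embryos dosed at one day post fertilization; 0% = reference inhibitor and 100% = plate mean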
# CONDITION_DETAILS: active compounds read low;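 tested at 30 µM in the well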
MEASURED_PARAMETER: vessel count % control (%)
Respond numerically; units are % and should not be typed.

compound=CCOC(=O)c1ncn2c1[C@@H]1CCCN1C(=O)c1cc(OC)ccc1-2 reported_value=102

Ask: Item CNc1ncnc2c1ncn2[C@@H]1O[C@H](CO)[C@H](O)C1O (stereo partly specified) has what recorded vessel count % control?
Result: 95.4

Ask: Need vessel count % control of `CC(=O)OCC(=O)[C@@]1(O)CC[C@H]2[C@@H]3CCC4=CC(=O)CC[C@]4(C)[C@H]3C(=O)C[C@@]21C` , thanks.
Result: 97.3

Ask: I have this compound here, `CCCN1CCc2cccc3c2[C@H]1Cc1ccc(O)c(O)c1-3` , and I need its recorded vessel count % control.
Result: 89.9

Ask: So what's the measured vessel count % control for this one? CN1CCN(C(=O)OC2c3nccnc3C(=O)N2c2ccc(Cl)cn2)CC1 (stereo unspecified)
Result: 105

Ask: Record request: vessel count % control value, item `NCCCCCCNS(=O)(=O)c1cccc2c(Cl)cccc12`
Result: 117

Ask: Name the reported vessel count % control value associated with the compound `CC[C@H]1CN2CCc3cc(OC)c(OC)cc3[C@@H]2C[C@@H]1C[C@H]1NCCc2cc(OC)c(OC)cc21`
Result: 103

Ask: Quick one: vessel count % control of `CCN(CCCl)Cc1ccccc1Br` ?
Result: 99.8

Ask: Consider the compound `C#CCOC(=O)C1=CCCN(C)C1` and give its measured vessel count % control.
Result: 106

Ask: Consider the compound `CN(C)CCCN1c2ccccc2Sc2ccccc21` and give its measured vessel count % control.
Result: 93.7

Ask: May I ask what vessel count % control has been recorded for `CCCCNC(=O)NS(=O)(=O)c1ccc(C)cc1` ?
Result: 87.6
